- tested system: hFXR (Homo sapiens)
- assay overview: In Vitro FXR Assay (TK): hFXR/hRXR TK-ECRE-luc reporter in transfected CV-1 cells
- test settings: 18 hrs incubation, luminescence, compounds with maximum efficacy <25% of the Fexarmine control classified as '+'

[
  {
    "molecule": "COc1ncc(-c2cccc(N(C[C@H]3CC[C@H](c4cnc(OC)c(Cl)c4)CC3)C(=O)[C@H]3CC[C@H](O)CC3)c2)s1 [Compound 9.04]",
    "EC50": "≤ 250 nM"
  },
  {
    "molecule": "COc1ccc([C@H]2CC[C@H](CN(c3cccc(-c4cnc(C(N)=O)s4)c3)C(=O)[C@H]3CC[C@H](O)CC3)CC2)cc1C [Compound 7.25]",
    "EC50": "250 to 1000 nM"
  },
  {
    "molecule": "CC#Cc1ncc(-c2cccc(N(C[C@H]3CC[C@H](c4ccc(OC)c(C)c4)CC3)C(=O)[C@H]3CC[C@H](O)CC3)c2)s1 [Compound 7.21]",
    "EC50": "≤ 250 nM"
  },
  {
    "molecule": "COc1ccc([C@H]2CC[C@H](CN(c3cc(-c4cnc(C5CC5)s4)ccn3)C(=O)[C@H]3CC[C@H](O)CC3)CC2)nc1C#N [Compound 9.23]",
    "EC50": "≤ 250 nM"
  },
  {
    "molecule": "Cn1ccc2cc([C@H]3CC[C@H](CN(c4cccc(-c5cnc(C6CC6)s5)c4)C(=O)[C@H]4CC[C@H](O)CC4)CC3)ncc21 [Compound 9.17]",
    "EC50": "250 to 1000 nM"
  },
  {
    "molecule": "COc1ccc([C@H]2CC[C@H](CN(c3cccc(C#Cc4nc(C)cs4)c3)C(=O)[C@H]3CC[C@H](O)CC3)CC2)cc1C [Compound 8.03]",
    "EC50": "≤ 250 nM"
  }
]

====

- tested system: UniProt:Q96RI1
- assay overview: In Vitro FXR Assay (TK): hFXR/hRXR TK-ECRE-luc reporter in transfected CV-1 cells
- test settings: 18 hrs incubation, luminescence, compounds with maximum efficacy <25% of the Fexarmine control classified as '+'
pEC50: −log10 of the molar value.
Reported pEC50 values are given for each entry in this list.

[
  {
    "compound": "COc1ncc(-c2cccc(N(CC3CCC(c4ccc(OC)c(C)c4)CC3C)C(=O)[C@H]3CC[C@H](O)CC3)c2)s1 (stereo partly shown)",
    "pEC50": "≥ 6.60"
  },
  {
    "compound": "CN(C)c1ccc([C@H]2CC[C@H](CN(c3cccc(-c4cnc(C5CC5)s4)c3)C(=O)[C@H]3CC[C@H](O)CC3)CC2)cn1",
    "pEC50": "≥ 6.60"
  },
  {
    "compound": "COc1ncc(-c2cccc(N(C[C@@H]3CC[C@@H](c4ccc(OC)c(C)c4)C(C)C3)C(=O)[C@H]3CC[C@H](O)CC3)c2)s1 (stereo partly shown)",
    "pEC50": "≥ 6.60"
  },
  {
    "compound": "CCn1cc([C@H]2CC[C@H](CN(c3cccc(-c4cnc(C5CC5)s4)c3)C(=O)[C@H]3CC[C@H](O)CC3)CC2)cn1",
    "pEC50": "≥ 6.60"
  },
  {
    "compound": "COc1ncc(-c2cccc(N(C[C@H]3CC[C@H](c4ccc(OC)c(C)c4)CC3)C(=O)[C@H]3CC[C@H](C)CC3)c2)s1",
    "pEC50": "≥ 6.60"
  },
  {
    "compound": "COc1ccc([C@H]2CC[C@H](CN(c3cc(-c4cnc(C5CC5)s4)ccn3)C(=O)[C@H]3CC[C@H](O)CC3)CC2)cc1C",
    "pEC50": "≥ 6.60"
  },
  {
    "compound": "COc1ccc([C@H]2CC[C@H](CN(c3cccc(-c4cnc(O)s4)c3)C(=O)[C@H]3CC[C@H](O)CC3)CC2)cc1C",
    "pEC50": "6.00 to 6.60"
  },
  {
    "compound": "COc1ccc([C@H]2CC[C@H](CN(c3cccc(-c4cnc(C(C)C)s4)c3)C(=O)[C@H]3CC[C@H](O)CC3)CC2)nc1C",
    "pEC50": "≥ 6.60"
  },
  {
    "compound": "COc1ccc([C@H]2CC[C@H](CN(c3cccc(-c4cnc(C#N)s4)c3)C(=O)[C@H]3CC[C@H](O)CC3)CC2)cc1C",
    "pEC50": "6.00 to 6.60"
  },
  {
    "compound": "COc1ccc([C@H]2CC[C@H](CN(c3cccc(-c4cnc(C5CC5)s4)c3)C(=O)[C@H]3CC[C@H](O)CC3)CC2)cc1C",
    "pEC50": "≥ 6.60"
  },
  {
    "compound": "COc1ccc([C@H]2CC[C@H](CN(c3cccc(OCc4nccs4)c3)C(=O)[C@H]3CC[C@H](O)CC3)CC2)cc1C",
    "pEC50": "≥ 6.60"
  },
  {
    "compound": "COc1ccc([C@H]2CC[C@H](CN(c3cccc(/C=C/c4nccs4)c3)C(=O)[C@H]3CC[C@H](O)CC3)CC2)cc1C",
    "pEC50": "≥ 6.60"
  },
  {
    "compound": "Cc1cc([C@H]2CC[C@H](CN(c3cccc(-c4cnc(C5CC5)s4)c3)C(=O)[C@H]3CC[C@H](O)CC3)CC2)ccc1N(C)S(C)(=O)=O",
    "pEC50": "6.00 to 6.60"
  }
]

====

- tested system: hFXR (Homo sapiens)
- assay overview: In Vitro FXR Assay (TK): hFXR/hRXR TK-ECRE-luc reporter in transfected CV-1 cells
- test settings: 18 hrs incubation, luminescence, compounds with maximum efficacy <25% of the Fexarmine control classified as '+'
pEC50: −log10 of the molar value.
pEC50 by entry:

[
  {
    "smiles structure": "COc1ncc(-c2cccc(N(C[C@H]3CC[C@H](c4ccc(OC)c(C)c4)CC3)C(=O)C3CCC(F)(F)CC3)c2)s1",
    "pEC50": "≥ 6.60"
  },
  {
    "smiles structure": "COc1ccc(C23CCC(CN(c4cccc(C#Cc5nccs5)c4)C(=O)[C@H]4CC[C@H](O)CC4)(CC2)CC3)cc1C",
    "pEC50": "≥ 6.60"
  },
  {
    "smiles structure": "COc1ccc(C23CCC(CN(c4cccc(-c5cnc(C6CC6)s5)c4)C(=O)[C@H]4CC[C@H](O)CC4)(CC2)CC3)cc1C",
    "pEC50": "≥ 6.60"
  }
]

====

- tested system: hFXR (Homo sapiens, UniProt Q96RI1)
- Sequence (Q96RI1 whole entry): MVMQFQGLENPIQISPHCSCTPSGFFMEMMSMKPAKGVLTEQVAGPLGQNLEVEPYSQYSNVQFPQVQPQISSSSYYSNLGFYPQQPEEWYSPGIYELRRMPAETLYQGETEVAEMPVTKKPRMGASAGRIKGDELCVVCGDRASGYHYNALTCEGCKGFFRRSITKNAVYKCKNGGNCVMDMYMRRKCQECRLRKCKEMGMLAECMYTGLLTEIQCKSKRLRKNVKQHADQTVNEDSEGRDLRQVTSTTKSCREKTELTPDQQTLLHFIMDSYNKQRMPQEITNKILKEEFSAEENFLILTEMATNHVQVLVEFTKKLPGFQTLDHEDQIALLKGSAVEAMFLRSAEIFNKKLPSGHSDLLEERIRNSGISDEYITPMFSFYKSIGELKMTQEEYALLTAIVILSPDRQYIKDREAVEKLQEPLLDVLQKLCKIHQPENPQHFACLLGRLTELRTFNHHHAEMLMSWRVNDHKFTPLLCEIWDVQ
- Sequence (P19793 whole entry partner): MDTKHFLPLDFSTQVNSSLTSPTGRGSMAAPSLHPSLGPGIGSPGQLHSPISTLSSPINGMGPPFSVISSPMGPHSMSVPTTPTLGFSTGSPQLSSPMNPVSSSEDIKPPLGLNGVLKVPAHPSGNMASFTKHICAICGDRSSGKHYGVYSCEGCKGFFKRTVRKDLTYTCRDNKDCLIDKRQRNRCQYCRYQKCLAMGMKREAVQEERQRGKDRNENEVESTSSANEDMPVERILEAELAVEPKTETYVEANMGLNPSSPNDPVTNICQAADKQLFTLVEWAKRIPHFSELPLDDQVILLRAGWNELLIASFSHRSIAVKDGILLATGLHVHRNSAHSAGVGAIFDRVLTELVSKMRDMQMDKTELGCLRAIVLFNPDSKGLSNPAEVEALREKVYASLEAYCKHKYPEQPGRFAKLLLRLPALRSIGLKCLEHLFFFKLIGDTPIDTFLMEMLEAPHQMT
- assay overview: In Vitro FXR Assay (TK): hFXR/hRXR TK-ECRE-luc reporter in transfected CV-1 cells
- test settings: 18 hrs incubation, luminescence, compounds with maximum efficacy <25% of the Fexarmine control classified as '+'

[
  {
    "smiles structure": "COC(=O)c1ncc(-c2cccc(N(C[C@H]3CC[C@H](c4ccc(OC)c(C)c4)CC3)C(=O)[C@H]3CC[C@H](O)CC3)c2)s1",
    "EC50": "250 to 1000 nM"
  },
  {
    "smiles structure": "COc1ncc(-c2cccc(N(C[C@H]3CC[C@H](c4ccc5c(c4)c(F)nn5C)CC3)C(=O)[C@H]3CC[C@H](O)CC3)c2)s1",
    "EC50": "≤ 250 nM"
  },
  {
    "smiles structure": "COc1ccc([C@H]2CC[C@H](CN(c3cccc(CNc4nccs4)c3)C(=O)[C@H]3CC[C@H](O)CC3)CC2)cc1C",
    "EC50": "≥ 1000 nM"
  },
  {
    "smiles structure": "COc1ccc([C@H]2CC[C@H](CN(c3cccc(-c4cnc(N(C)C)s4)c3)C(=O)[C@H]3CC[C@H](O)CC3)CC2)cc1C",
    "EC50": "≤ 250 nM"
  }
]
